tested on: Plasmodium falciparum; assay: Primary screen in NF54 nanoGlo assay, in single point, at 2uM, 72h; format: functional, Erythrocyte; details: timepoint 72 hour
In all, about 150,000 compounds went through this assay and about 540 (0.36%) showed an effect of 50% or more. For the sample, strong results were picked, then their nearest neighbours and some compounds at random.
Listed compounds paired with reported % Inhibition

Please review the following examples before continuing.
compound=CCOCC1CCN(CCc2ccc3c(c2)CCO3)CC1 study_system="Plasmodium falciparum" test_value=-4%
compound=Cc1cc(C)nc(-n2nc(C)c(CCc3ccccc3)c2O)n1 study_system="Plasmodium falciparum" test_value=32%
compound=Cc1ccc(N2C(=O)c3ccccc3[C@@H]2c2c[nH]c3ccccc23)cc1 study_system="Plasmodium falciparum" test_value=63%

// query // Input: `CC(C)[C@H](NC(=O)[C@H](Cc1ccccc1)n1cnnn1)c1nc2ccccc2[nH]1` . Output its % Inhibition only.
// result -15%

// query Hello, please tell me recorded % Inhibition for this one: `O=C(Nc1cccc2cccnc12)c1cscn1`
// result 9%

// query Identify % Inhibition associated with the compound `COc1ccc(CN2CC[C@@H]3C(=O)NCCCCCCN(Cc4ccncc4)[C@@H]3C2)cc1Cn1ccnc1`
// result 59%
